# Tested on: MDCK-II
# Experiment notes: Cytotoxicity against dog MDCK-II cells at 5 uM
# Assay type: toxicity, cell-based, Canis lupus familiaris
Quantity kind: Activity

CCC(CC)O[C@@H]1C=C(C(=O)O)C[C@H](N)[C@H]1NC(C)=O [OSELTAMIVIR CARBOXYLATE]: Non-Toxic
CC[C@@H](CCCCc1cn([C@H]2[C@H](O)[C@@H](O)[C@H](n3cc(-c4ccc(-c5cn([C@H]6[C@H](O)[C@@H](O)[C@H](n7cc(-c8ccc(-c9cn([C@@H]%10O[C@H](CO)[C@@H](n%11cc(CCCC[C@H](CC)O[C@@H]%12OC(C(=O)O)=C[C@H](O)[C@H]%12NC(C)=O)nn%11)[C@H](O)[C@H]%10O)nn9)cc8)nn7)O[C@@H]6CO)nn5)cc4)nn3)O[C@@H]2CO)nn1)O[C@@H]1OC(C(=O)O)=C[C@H](O)[C@H]1NC(C)=O: Non-Toxic
CC[C@@H](CCCCc1cn([C@H]2[C@H](OC(C)=O)[C@@H](OC(C)=O)[C@H](n3cc(CCCC[C@H](CC)O[C@@H]4OC(C(=O)O)=C[C@H](O)[C@H]4NC(C)=O)nn3)O[C@@H]2CO)nn1)O[C@@H]1OC(C(=O)O)=C[C@H](O)[C@H]1NC(C)=O: Non-Toxic

----------
# Tested on: MDCK-II
# Experiment notes: Cytotoxicity against dog MDCK-II cells at 5 uM
# Assay type: toxicity, cell-based, Canis lupus familiaris
Quantity kind: Activity

CC[C@@H](CCCCc1cn([C@H]2[C@H](OC(C)=O)[C@@H](OC(C)=O)[C@H](n3cc(CCCC[C@H](CC)O[C@@H]4OC(C(=O)O)=C[C@H](O)[C@H]4NC(C)=O)nn3)O[C@@H]2COC(C)=O)nn1)O[C@@H]1OC(C(=O)O)=C[C@H](O)[C@H]1NC(C)=O: Non-Toxic
C#CCCC[C@H](CC)O[C@@H]1CC(C(=O)O)=C[C@H](O)[C@H]1NC(C)=O: Non-Toxic
CC[C@@H](CCCCc1cn([C@H]2[C@H](O)[C@@H](O)[C@H](n3cc(-c4ccc(-c5cn([C@@H]6O[C@H](CO)[C@@H](n7cc(CCCC[C@H](CC)O[C@@H]8OC(C(=O)O)=C[C@H](O)[C@H]8NC(C)=O)nn7)[C@H](O)[C@H]6O)nn5)cc4)nn3)O[C@@H]2CO)nn1)O[C@@H]1OC(C(=O)O)=C[C@H](O)[C@H]1NC(C)=O: Non-Toxic
